Data credit: the supplement of paper PMC10065799

biological target: Fyn (UniProt P06241); experiment: phosphorylation enrichment, bacterial display (enrichment ratio); higher = better substrate or ligand; peptides without Tyr show the background;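 further: 11-residue human phosphosite peptides and single-mutation variants displayed on the E. coli surface, counted by deep sequencing, each peptide's frequency after selection divided by its frequency in the unselected input library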;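 further: frequency after pTyr selection over input frequency; kinase dosed for 20-30% of maximal phosphorylation in three min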
Sequence (P06241 whole entry, looked up): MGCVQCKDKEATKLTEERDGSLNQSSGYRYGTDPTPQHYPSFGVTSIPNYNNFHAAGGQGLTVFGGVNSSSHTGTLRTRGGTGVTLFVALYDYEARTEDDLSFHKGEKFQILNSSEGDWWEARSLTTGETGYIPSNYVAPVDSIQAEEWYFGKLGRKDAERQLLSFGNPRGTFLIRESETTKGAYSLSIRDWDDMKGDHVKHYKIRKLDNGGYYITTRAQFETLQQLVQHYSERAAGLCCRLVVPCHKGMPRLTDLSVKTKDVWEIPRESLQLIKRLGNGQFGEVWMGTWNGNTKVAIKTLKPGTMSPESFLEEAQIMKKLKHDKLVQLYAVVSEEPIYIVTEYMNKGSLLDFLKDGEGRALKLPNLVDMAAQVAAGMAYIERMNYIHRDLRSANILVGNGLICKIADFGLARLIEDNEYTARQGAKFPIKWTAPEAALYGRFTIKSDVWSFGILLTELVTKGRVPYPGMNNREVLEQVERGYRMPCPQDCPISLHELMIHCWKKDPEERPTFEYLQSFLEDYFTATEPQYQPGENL
Each entry gets n if its phosphorylation enrichment stays under 0.8, and y if its phosphorylation enrichment is 0.8 or above.

Worked examples, 4 sequences total:
VNNTVYGIDAM [EIF3J_Y143_A141T] ... y
PSQRRNVYYYS [PTEN_Y174_Y174N] ... y
VDGSVYELHPS [GCK_Y413_K414E] ... y
PIYEGYGLPHA [ACTA1_Y171_A172G] ... y

Prompt: Exam item: decide whether the reported phosphorylation enrichment for GSSSSCGQHGS [HRNR_Y517_Y517C] is at least 0.8.
Completion: n

----------
target: EPHB1 (UniProt P54762); assay: phosphorylation enrichment, bacterial display (enrichment ratio); higher = better substrate or ligand; peptides without Tyr show the background
Sequence (P54762 whole entry, looked up): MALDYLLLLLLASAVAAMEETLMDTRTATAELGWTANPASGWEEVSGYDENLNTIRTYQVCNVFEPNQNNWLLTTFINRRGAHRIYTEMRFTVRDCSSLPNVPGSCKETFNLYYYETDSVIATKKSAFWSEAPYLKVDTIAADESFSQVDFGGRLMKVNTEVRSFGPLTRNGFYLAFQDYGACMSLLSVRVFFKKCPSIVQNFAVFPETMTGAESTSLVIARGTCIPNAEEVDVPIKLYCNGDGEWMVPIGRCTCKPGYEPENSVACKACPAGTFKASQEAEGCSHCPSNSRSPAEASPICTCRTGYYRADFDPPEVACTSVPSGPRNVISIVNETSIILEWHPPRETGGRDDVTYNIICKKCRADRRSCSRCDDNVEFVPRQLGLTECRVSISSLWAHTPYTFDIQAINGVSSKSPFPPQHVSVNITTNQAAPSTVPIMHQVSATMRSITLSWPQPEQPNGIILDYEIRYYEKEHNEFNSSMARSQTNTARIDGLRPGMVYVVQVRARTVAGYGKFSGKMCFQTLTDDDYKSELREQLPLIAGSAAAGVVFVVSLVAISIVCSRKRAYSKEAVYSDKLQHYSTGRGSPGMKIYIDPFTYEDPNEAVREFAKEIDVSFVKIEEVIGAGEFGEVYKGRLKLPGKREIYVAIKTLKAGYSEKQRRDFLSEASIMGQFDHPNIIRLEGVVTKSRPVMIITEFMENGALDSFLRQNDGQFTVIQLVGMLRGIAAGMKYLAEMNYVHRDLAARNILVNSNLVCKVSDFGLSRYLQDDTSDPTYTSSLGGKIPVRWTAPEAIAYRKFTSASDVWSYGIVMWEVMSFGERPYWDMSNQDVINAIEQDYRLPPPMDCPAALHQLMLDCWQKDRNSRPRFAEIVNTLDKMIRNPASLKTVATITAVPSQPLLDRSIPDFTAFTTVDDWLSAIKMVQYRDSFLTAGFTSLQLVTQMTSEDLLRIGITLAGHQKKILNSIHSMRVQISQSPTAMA
property.label: phosphorylation enrichment
One number for each entry.

Below are worked cases with known answers.
SAVTGYRVNVI [FN1_Y937_D940N] ... 0.407
QEEPEYWDQET [HLA-A_Y83_G80E] ... 1.08
QLQVFYATRDQ [MIPEP_Y579_L582R] ... 0.787

Quick request: phosphorylation enrichment for each listed item, please.
1. PGLSSYGVPAS [FLNB_Y1530]
2. YGGLRYGYGGL [KRTAP20-2_Y13_V17G]

Completion:
1: 0.543; 2: 0.418

Below are 3 sequences. Give each one its phosphorylation enrichment.
1. YRDMDYRSYPH [RBM10_Y41_R46H]
2. ELANLYHHVCM [BICD2_Y538]
3. RAMRRYLERGE [ERBB3_Y680]

Completion:
0.578
0.666
0.719

----------
tested on: Fer (mouse); assay: phosphorylation enrichment, bacterial display (enrichment ratio); higher = better substrate or ligand; peptides without Tyr show the background
property.label: phosphorylation enrichment

EKQVAYCPSGR [ROS1_Y2323_K2328R] ... 0.675
LEIETCRRLLD [KRT12_Y429_Y429C] ... 0.474
INSLKYAYNIS [EIF2B5_Y583] ... 0.392
QRAADYFSQQM [GBP6_Y333_YF] ... 0.491
NGTVTYAIIAG [CDH23_Y1672_V1675I] ... 0.503

Now for another entry.
Prompt: Give recorded phosphorylation enrichment. QTEAQYRFIYM [PTPN11_Y511]
Completion: 1.09

----------
Please go through the items and note down their phosphorylation enrichment.
molecular target: EPHB1 (UniProt P54762); test: phosphorylation enrichment, bacterial display (enrichment ratio); higher = better substrate or ligand; peptides without Tyr show the background
Answers are plain numbers.

A selection of reference data follows.
QQLQGYVPSNF [FRK_Y99_I100V_YF] ... 0.653
GRPLFYWLTGC [LYZL6_Y140] ... 0.686
YPIDHYLGKEM [G6PD_Y202_R198P] ... 0.405
GKSFTYAAFHA [KCNT1_Y563] ... 0.603
KVMANYVYKAG [MAML2_Y513_M514V] ... 0.395

Report phosphorylation enrichment for every entry below.
1. TRSYDYTEGGD [FGF7_Y58_M59T]
2. TLSGTYQYIIA [FOXL2_Y81_I80T]
3. QRAADYFSQQM [GBP6_Y333_YF]

Completion:
[0.439, 5.25, 0.469]

Batch: phosphorylation enrichment for all items listed.
1. PKAWNYELPAT [PROM1_Y34]
2. PSQRRNVYYYS [PTEN_Y174_Y174N]
3. FGLQAYTEVKT [ALDH2_Y502_YF]

Completion:
1. 0.761
2. 0.397
3. 0.715
